- Experimental System: AgMyo5
- Procedure Text: SPOT peptide array binding signal intensity (averaged, normalized) (arbitrary units (background-subtracted, floor 0; scale differs between SH3 domains)); higher = stronger binding of the SH3 domain to the peptide
Think of 40 as a floor: if SPOT peptide array binding signal intensity stands on it or above, it is rule met; beneath it, rule not met.

Solved cases below.
[
  {
    "Binder": "KWVRRPKLMTPLTFS",
    "Discrete Label": "rule not met"
  },
  {
    "Binder": "NLPKRKPPKLQGPFS",
    "Discrete Label": "rule not met"
  },
  {
    "Binder": "KIRRSSLMIPNPQQF",
    "Discrete Label": "rule not met"
  },
  {
    "Binder": "QQNRPLPQLPNRNNR",
    "Discrete Label": "rule not met"
  },
  {
    "Binder": "KRKRRLPVSEDTNTK",
    "Discrete Label": "rule not met"
  },
  {
    "Binder": "NHSRSLFSLPGNQQS",
    "Discrete Label": "rule met"
  }
]

SPOT peptide array binding signal intensity >= 40 for NPLPKEPRLPKRKVA ?
rule not met

SPOT peptide array binding signal intensity >= 40 for FIRKRAPTPPAPSRS ?
rule not met

SPOT peptide array binding signal intensity >= 40 for GQYRRTIVIPRRFFT ?
rule not met

SPOT peptide array binding signal intensity >= 40 for PALPSLPPPPLLNVD ?
rule met

SPOT peptide array binding signal intensity >= 40 for FTLPPPPPPPGLDEL ?
rule met

SPOT peptide array binding signal intensity >= 40 for AHFQPQRTAPKPPIS ?
rule met

SPOT peptide array binding signal intensity >= 40 for SRQAIPPPVPNRPGG ?
rule met

SPOT peptide array binding signal intensity >= 40 for KNRKNLPTIPIRLSG ?
rule not met

SPOT peptide array binding signal intensity >= 40 for NPTKSPPPPPSPSTM ?
rule met

The reported numbers originate from the supplement of paper PMC4466140.
